Reference for the values: the Deep4Chem optical property database

Method: solvent given as SMILES
Test conditions: in CO
Metric name: emission maximum (nm)
Dear colleague, please return just the value in nm, with no unit written.

(Q) Query (molecule): O=C([O-])c1c(Cl)c(Cl)c(Cl)c(Cl)c1-c1c2cc(I)c(=O)c(I)c-2oc2c(I)c([O-])c(I)cc12 ; field requested: emission maximum
(A) 571

(Q) Now the same for CCc1ccc(/C=C/c2ccc(-c3nnc(-c4ccc(-c5cc6ccccc6s5)cc4)o3)cc2)cc1
(A) 426

(Q) Now the same for CCCSC1=[N+]2C(=C(c3ccccc3)c3ccc(SCCC)n3[B-]2(F)F)C=C1SC#N
(A) 582

(Q) Now the same for CCCN1C(=O)C(=CC=CC=C2Oc3ccccc3N2CCCS(=O)(=O)[O-])C(=O)N(CCC)C1=S
(A) 577

(Q) Now the same for Cc1ccc(C2=C3C=CC(c4ccccc4)=[N+]3[B-](F)(F)n3c2ccc3-c2ccccc2)cc1
(A) 582

(Q) Now the same for O=c1oc2ccccc2cc1-c1nc2ccccc2o1
(A) 440

(Q) Now the same for CSc1ccc2c(c1)N(CCCN(C)C)c1ccccc1S2
(A) 455

(Q) Now the same for N#Cc1ccc(-c2nc(-c3ccccc3)c(-c3ccccc3)[nH]2)cc1
(A) 435

(Q) Now the same for CN(C)c1ccc(C#Cc2ccc(-c3nc(C#N)c(C#N)n3C)cc2)cc1
(A) 489

(Q) Now the same for CN(C)c1ccc(C2=Cc3cccc[n+]3[B-](F)(F)O2)cc1
(A) 517

(Q) Now the same for CCCCN1\C(=C/C=C/C=C/C2=[N+](CCCC)c3ccc4ccccc4c3C2(C)C)C(C)(C)c2c1ccc1ccccc21
(A) 701

(Q) Now the same for CC(=O)c1ccc(-c2nc3ccc(N(C)C)c(Cl)c3s2)cc1
(A) 629

(Q) Now the same for Cc1ccc2nnn(-c3c(C#N)c4c(N)ncnc4n3[C@H]3C[C@H](O)[C@@H](CO)O3)c2c1
(A) 419

(Q) Now the same for Clc1ccc(/C=C(\c2ccccc2)c2nc3ccccc3o2)cc1
(A) 420

(Q) Now the same for CN1/C(=C/C=C(/C=C/c2sc3ccccc3[n+]2C)c2cccc(C(F)(F)F)c2)Sc2ccccc21
(A) 661

(Q) Now the same for CNc1ccc(/C=C/C#N)cc1
(A) 423

(Q) Now the same for COc1cc(-c2cc(-c3ccc(C)cc3)nc3c(C#N)c(N4CCCC4)nc(N)c23)cc(OC)c1OC
(A) 526

(Q) Now the same for COc1c2ccccc2c(OC)c2c1c1cc(C)ccc1n2C
(A) 426

(Q) Now the same for O=S(=O)([O-])c1cc([O-])c2ccc3c(S(=O)(=O)[O-])cc(S(=O)(=O)[O-])c4ccc1c2c34
(A) 509.01

(Q) Now the same for c1ccc(-c2nc(-c3ccccc3)n3ccccc23)cc1
(A) 477

(Q) Now the same for O=Cc1cc(O)c(C=O)cc1O
(A) 492

(Q) Now the same for COc1cc2c(cc1/C=C(\C#N)c1nc3ccccc3s1)c1ccccc1n2C
(A) 510

(Q) Now the same for N#Cc1c[nH]c2ccccc12
(A) 314

(Q) Now the same for c1ccc(N(c2ccccc2)c2ccc(-c3ncc(-c4cnc(-c5ccc(N(c6ccccc6)c6ccccc6)cc5)s4)s3)cc2)cc1
(A) 510

(Q) Now the same for CN(C)CCNc1ccc([N+](=O)[O-])cc1[N+](=O)[O-]
(A) 389

(Q) Now the same for CN(C)c1ccc2c(c1)C(=O)NC2=O
(A) 534

(Q) Now the same for CN(C)c1ccc(/C=C2\CC/C(=C\c3ccc(C#N)cc3)C2=O)cc1
(A) 693

(Q) Now the same for CCCSc1ccc2n1[B-](F)(F)[N+]1=CC=CC1=C2c1ccccc1
(A) 583

(Q) Now the same for CN(C)c1ccc(C#Cc2ccccc2)cc1
(A) 372

(Q) Now the same for CC1=[N+]2C(=C(c3ccc(N4CCOCC4)cc3)c3ccc(C)n3[B-]2(F)F)C=C1
(A) 521

(Q) Now the same for CCN(CC)c1ccc(-c2nc3c(c4c2-c2ccc(C#N)cc2CC4)-c2ccc(C#N)cc2CC3)cc1
(A) 525

(Q) Now the same for CC1=C(C(C)(C)C)C(C)=[N+]2C1=C(C)c1c(C)c(C(C)(C)C)c(C)n1[B-]2(F)F
(A) 561.2

(Q) Now the same for Cc1cc(C)c(B(c2cc(C#Cc3ccccc3)sc2-c2sc(C#Cc3ccccc3)cc2P(=O)(c2ccccc2)c2ccccc2)c2c(C)cc(C)cc2C)c(C)c1
(A) 560

(Q) Now the same for O=C(O)c1ccc(-c2cnc(-c3ccc(N(c4ccccc4)c4ccccc4)cc3)s2)cc1
(A) 496

(Q) Now the same for Oc1ccc2ccccc2c1C1Nc2cccc3cccc(c23)N1
(A) 476

###

Method: solvent given as SMILES
Test conditions: in CO
Label Condition not met if emission maximum falls below 400 nm; label Condition met in every other case.

(Q) Check this molecule for emission maximum at or above 400 nm: COc1cccc(-n2c(-c3ccccc3)nc(C)c2C)c1
(A) Condition not met

(Q) Now the same for Nc1ccc2c(c1)C(=O)c1ccc(N)cc1C2=O
(A) Condition met

(Q) Now the same for C1=Cc2ccccc2Cc2ccccc21
(A) Condition not met

(Q) Now the same for Cc1cccc(-c2[nH]c(=O)n3c2-c2ccccc2C3=O)c1O
(A) Condition met

(Q) Now the same for COc1ccc(-c2nc3c(c4c2-c2ccccc2CC4)-c2ccccc2CC3)cc1
(A) Condition met

###

Method: solvent given as SMILES
Test conditions: in CC#N
Lab note: anything with emission maximum below 500 nm is marked Criterion met; values at 500 nm or higher are marked Criterion not met.

(Q) Threshold test, emission maximum < 500 nm: Fc1ccc(N(c2ccc(F)cc2)c2ccc3c4cccc5c(N(c6ccc(F)cc6)c6ccc(F)cc6)ccc(c6cccc2c63)c54)cc1
(A) Criterion not met

(Q) Now the same for CSc1ccc2c(c1)N(CCCN(C)C)c1ccccc1S2
(A) Criterion met

(Q) Now the same for CCN(CC)c1ccc(/C=N/C(C#N)=C(C#N)/N=C/c2ccc(N(CC)CC)cc2O)c(O)c1
(A) Criterion not met

(Q) Now the same for CC1=[N+]2C(=C(C3=CC4OCCOCCOCCOCCOC4C=C3)c3c4ccccc4c(/C=C/c4ccc(N(C)C)cc4)n3[B-]2(F)F)c2ccccc21 (centres undefined)
(A) Criterion not met

(Q) Now the same for CC(C)(C)c1ccc2c(c1)c1cc(C(C)(C)C)ccc1n2-c1ccccc1-c1nc(-c2ccccc2-n2c3ccc(C(C)(C)C)cc3c3cc(C(C)(C)C)ccc32)nc(-c2ccccc2P(=O)(c2ccccc2)c2ccccc2)n1
(A) Criterion not met

(Q) Now the same for Cc1ccccc1/C(C#N)=C/c1ccc(N(C)C)cc1
(A) Criterion met

(Q) Now the same for CCOC(=O)c1c2c3c(ccc(F)c3c3cc4c(cc13)[Si](C)(C)O[Si]4(C)C)N(C)C2=O
(A) Criterion met

(Q) Now the same for CC(C)(C)c1ccc(C2=CC3=C(c4ccccc4)c4cc(-c5ccc(C(C)(C)C)cc5)c(-c5ccc(C(C)(C)C)cc5)n4[B-](F)(F)[N+]3=C2c2ccc(C(C)(C)C)cc2)cc1
(A) Criterion not met

(Q) Now the same for CC1=C(c2ccccc2)C2=Cc3c(-c4ccccc4)c(C)c(C)n3[B-](F)(F)[N+]2=C1C
(A) Criterion not met

(Q) Now the same for C(/C=C/c1cc2c3c(c1)CCCN3CCC2)=C\c1ccncc1
(A) Criterion not met

(Q) Now the same for CC1=C(C(C)(C)C)C(C)=[N+]2C1=C(C)c1c(C)c(C(C)(C)C)c(C)n1[B-]2(F)F
(A) Criterion not met

(Q) Now the same for CCOC(=O)CSc1nc(-c2ccccc2)c(C)c(C#N)c1C#N
(A) Criterion met

(Q) Now the same for C=Cc1ccc(OC)cc1
(A) Criterion met

(Q) Now the same for COc1ccc2c(c1)c1c(OC)c3ccccc3c(OC)c1n2C
(A) Criterion met

(Q) Now the same for COc1ccc(/C=C/c2nc(/C=C/c3ccc(N(c4ccccc4)c4ccccc4)cc3)cc(/C=C/c3ccc(N(c4ccccc4)c4ccccc4)cc3)n2)cc1
(A) Criterion not met

(Q) Now the same for CCN(CC)c1ccc(-c2nc3c(c4c2-c2ccc(C#N)cc2CC4)-c2ccc(C#N)cc2CC3)cc1
(A) Criterion not met

(Q) Now the same for COc1ccc(C(=O)/C=C2\C(=O)Nc3ccccc32)cc1
(A) Criterion met

(Q) Now the same for C(=C\c1cnc2ccccc2n1)/c1ccc(N(c2ccccc2)c2ccccc2)cc1
(A) Criterion not met

(Q) Now the same for Cc1ccc(S(=O)(=O)Nc2c(/C=C/c3ccccc3)sc(-c3ccc(N(C)C)s3)c2-c2cccnc2)cc1
(A) Criterion not met

(Q) Now the same for N#Cc1nn(-c2ccc(F)cc2)nc1N1CCCC1
(A) Criterion met

(Q) Now the same for CCCCCCOc1ccc(-c2cnc(-c3nnc(-c4ccc(OCCCCCC)cc4)o3)o2)cc1
(A) Criterion met
